# target.of.assay: Tyrosine-protein kinase JAK2 (Homo sapiens, UniProt O60674)
# Sequence (O60674 whole entry): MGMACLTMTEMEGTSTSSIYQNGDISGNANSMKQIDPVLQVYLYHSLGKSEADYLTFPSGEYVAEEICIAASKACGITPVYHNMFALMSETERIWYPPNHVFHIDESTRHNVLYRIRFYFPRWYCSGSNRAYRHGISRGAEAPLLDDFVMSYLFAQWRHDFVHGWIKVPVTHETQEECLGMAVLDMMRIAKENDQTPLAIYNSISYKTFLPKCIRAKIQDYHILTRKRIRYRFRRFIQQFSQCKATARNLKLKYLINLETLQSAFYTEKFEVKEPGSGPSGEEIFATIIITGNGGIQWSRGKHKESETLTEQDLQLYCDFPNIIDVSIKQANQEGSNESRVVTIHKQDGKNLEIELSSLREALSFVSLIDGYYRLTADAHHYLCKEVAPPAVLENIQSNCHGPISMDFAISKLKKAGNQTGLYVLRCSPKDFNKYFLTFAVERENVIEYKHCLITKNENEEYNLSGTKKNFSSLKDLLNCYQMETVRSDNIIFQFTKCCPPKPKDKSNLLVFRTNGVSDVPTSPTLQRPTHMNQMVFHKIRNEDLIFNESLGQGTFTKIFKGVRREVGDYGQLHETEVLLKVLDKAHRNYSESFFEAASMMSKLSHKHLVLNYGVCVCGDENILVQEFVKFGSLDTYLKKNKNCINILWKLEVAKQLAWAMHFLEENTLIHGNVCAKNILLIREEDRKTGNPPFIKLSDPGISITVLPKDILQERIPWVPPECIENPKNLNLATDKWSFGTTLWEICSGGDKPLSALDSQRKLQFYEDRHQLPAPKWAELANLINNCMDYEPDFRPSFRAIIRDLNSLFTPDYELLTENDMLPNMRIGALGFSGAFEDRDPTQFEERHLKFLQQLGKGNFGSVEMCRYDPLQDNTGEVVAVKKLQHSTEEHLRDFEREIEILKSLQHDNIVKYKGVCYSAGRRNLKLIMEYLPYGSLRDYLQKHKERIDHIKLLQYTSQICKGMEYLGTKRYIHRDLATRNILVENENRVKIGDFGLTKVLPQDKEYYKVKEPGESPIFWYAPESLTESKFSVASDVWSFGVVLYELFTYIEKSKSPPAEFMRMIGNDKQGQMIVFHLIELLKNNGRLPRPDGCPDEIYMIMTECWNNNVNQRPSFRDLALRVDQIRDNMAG
readout.label: Ki (nM)

Consider the reported Ki for these molecules:
compound_smiles=c1ccc(CCc2cn(-c3ccc4[nH]ncc4c3)nn2)cc1 readout_label=Ki unit_of_measurement=nM observed_value=898
compound_smiles=CCCc1cn(-c2ccc3[nH]ncc3c2)nn1 readout_label=Ki unit_of_measurement=nM observed_value=756
compound_smiles=c1cc2[nH]ncc2cc1-n1cc(C2CC2)nn1 readout_label=Ki unit_of_measurement=nM observed_value=1450

I = c1ccc(CCCc2cn(-c3ccc4[nH]ncc4c3)nn2)cc1
II = c1cc2[nH]ncc2cc1-n1cc(CC2CCCCC2)nn1
Query :: Looking only at measured Ki, which entry is lower, I or II ? Refer to your chosen entry by its label in the reply.
Result :: II

---

Ki reference
# target.of.assay: Vascular endothelial growth factor receptor 2 (Homo sapiens, UniProt P35968)
# Sequence (P35968 whole entry): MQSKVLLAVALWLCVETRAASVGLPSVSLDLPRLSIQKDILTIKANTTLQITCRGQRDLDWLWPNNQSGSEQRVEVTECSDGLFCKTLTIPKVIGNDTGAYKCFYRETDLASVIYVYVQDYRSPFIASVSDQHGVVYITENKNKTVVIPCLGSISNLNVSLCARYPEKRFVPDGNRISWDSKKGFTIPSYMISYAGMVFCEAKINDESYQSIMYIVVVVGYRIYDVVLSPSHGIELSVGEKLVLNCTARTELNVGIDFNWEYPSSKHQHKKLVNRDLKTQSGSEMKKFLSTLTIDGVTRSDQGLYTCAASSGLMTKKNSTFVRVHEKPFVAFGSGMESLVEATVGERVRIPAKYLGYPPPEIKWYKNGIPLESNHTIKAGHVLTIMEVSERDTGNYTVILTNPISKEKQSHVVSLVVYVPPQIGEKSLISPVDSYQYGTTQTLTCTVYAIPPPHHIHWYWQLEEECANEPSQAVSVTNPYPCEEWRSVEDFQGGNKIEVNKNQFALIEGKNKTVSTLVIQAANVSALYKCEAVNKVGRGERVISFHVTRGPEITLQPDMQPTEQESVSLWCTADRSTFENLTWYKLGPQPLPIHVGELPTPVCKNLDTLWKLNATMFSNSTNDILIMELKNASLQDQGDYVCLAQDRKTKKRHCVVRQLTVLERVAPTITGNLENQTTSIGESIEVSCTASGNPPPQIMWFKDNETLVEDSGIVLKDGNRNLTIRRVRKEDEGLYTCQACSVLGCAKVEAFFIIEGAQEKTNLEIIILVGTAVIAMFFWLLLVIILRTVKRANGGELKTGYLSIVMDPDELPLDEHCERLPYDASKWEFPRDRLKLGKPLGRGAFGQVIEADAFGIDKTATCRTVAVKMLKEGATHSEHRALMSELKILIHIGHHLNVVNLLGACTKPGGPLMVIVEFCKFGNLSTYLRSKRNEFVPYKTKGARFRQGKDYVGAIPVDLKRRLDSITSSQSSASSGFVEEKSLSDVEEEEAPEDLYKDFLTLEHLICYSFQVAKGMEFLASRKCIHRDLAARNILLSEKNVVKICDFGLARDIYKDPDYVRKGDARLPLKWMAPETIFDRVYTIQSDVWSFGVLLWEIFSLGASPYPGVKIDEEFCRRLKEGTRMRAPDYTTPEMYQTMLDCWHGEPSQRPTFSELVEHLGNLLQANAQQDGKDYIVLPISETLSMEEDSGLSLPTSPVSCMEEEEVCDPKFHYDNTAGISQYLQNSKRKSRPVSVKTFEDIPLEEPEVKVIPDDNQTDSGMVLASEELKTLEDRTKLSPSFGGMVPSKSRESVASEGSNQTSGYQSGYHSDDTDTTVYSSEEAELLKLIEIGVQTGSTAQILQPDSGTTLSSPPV
# protocol.summary: Inhibition of KDR after 1 hr

compound_smiles=OCCCc1cn(-c2ccc3[nH]ncc3c2)nn1 target_of_assay="Vascular endothelial growth factor receptor 2 (Homo sapiens, UniProt P35968)" observed_value="> 8.88 µM"
compound_smiles=Cc1cccc(Cn2cc(-c3ccc4[nH]ncc4c3)nn2)c1 target_of_assay="Vascular endothelial growth factor receptor 2 (Homo sapiens, UniProt P35968)" observed_value="> 0.915 µM"
compound_smiles=c1ccc(CCc2cn(-c3ccc4[nH]ncc4c3)nn2)cc1 target_of_assay="Vascular endothelial growth factor receptor 2 (Homo sapiens, UniProt P35968)" observed_value="> 8.88 µM"

Query :: Can you look up the measured Ki of c1cc2[nH]ncc2cc1-n1cc(C2CC2)nn1 for me?
Result :: > 8.88 µM

Query :: Request the reported Ki associated with Clc1ccc(Cl)c(Cn2cc(-c3ccc4[nH]ncc4c3)nn2)c1
Result :: 127 µM

---

Please consider the recorded Ki for Tyrosine-protein kinase JAK2 (Homo sapiens, UniProt O60674) in what follows.

Previously resolved entries follow.
compound_smiles=Clc1ccccc1Cn1cc(-c2ccc3[nH]ncc3c2)nn1 observed_value="> 1.45 µM"
compound_smiles=COCc1cn(-c2ccc3[nH]ncc3c2)nn1 observed_value="> 1.45 µM"

Next, consider the following compound.
Query :: What value of Ki on Tyrosine-protein kinase JAK2 (Homo sapiens, UniProt O60674) does c1cc2n[nH]cc2cc1-c1c[nH]nn1 have?
Result :: 1.45 µM
